These data points were gathered from patent US12187717B2.

Method description: Pharmacokinetic parameters after oral or intravenous administration
Type: in vivo
Cond: rat, plasma; rats, Oral (PO), 50 mg/kg
Metric name: AUC(0-t) (ng·h/mL)
Lab book: enter the figure in ng·h/mL, no units written.

Please look up its AUC(0-t): O=C(Cc1c[nH]c2ccc(Cl)cc12)Nc1nc2ccc(N3CCOCC3)cc2s1
43100

* * *

Method description: Pharmacokinetic parameters after oral or intravenous administration
Format: in vivo
Cond: rat, plasma; rats, Oral (PO), 10 mg/kg
Would you mind telling me the reported Tmax of each entry?
Lab book: enter the figure in h, no units written.

Please look up its Tmax: O=C(Cc1c[nH]c2ccc(Cl)cc12)Nc1nc2ccccc2s1 [Comparative Example 1, reference compound]
1

Please look up its Tmax: O=C(Cc1c[nH]c2ccc(Cl)cc12)Nc1nc2ccc(N3CCOCC3)cc2s1
2
